Hello, the source for this data is paper PMC11642016, in case you need it.

Tested on: non-tumorous primary fibroblast cells
Test: CellTiter-Glo luminescent cell viability assay, primary fibroblasts
Conditions: 7.7 μM; 72 h; dose–response, individual replicates
attribute measured: Primer fibroblast Cell viability (% of controll)

Some compounds with known Primer fibroblast Cell viability (% of controll) results, for comparison:
CNCC#Cc1cccc(CN2C(=O)C3=C(CCN(Cc4ccc(-n5cc(-c6cccc(F)c6)nn5)cc4)C3)N3CCN=C23)c1 [43a] ... 0 % of controll
CNCC#Cc1cccc(CN2C(=O)C3=C(CCN(Cc4ccc(-n5cc(-c6ccc(F)cc6)nn5)cc4)C3)N3CCN=C23)c1 [43b] ... 0 % of controll
CNCC#Cc1cccc(CN2C(=O)C3=C(CCN(Cc4ccc(-n5cc(-[c-]6cccc6)nn5)cc4)C3)N3CCN=C23)c1.[Fe+2].c1cc[cH-]c1 [38a] ... 0 % of controll
NCC#Cc1ccc(CN2C(=O)C3=C(CCN(Cc4ccc(-n5cc(-c6ccccc6)nn5)cc4)C3)N3CCN=C23)cc1 [I/B, reference compound] ... 107 % of controll
CNCC#Cc1cccc(CN2C(=O)C3=C(CCN(Cc4ccc(-n5cc(-c6cc(F)cc(F)c6)nn5)cc4)C3)N3CCN=C23)c1 [43c] ... 0 % of controll

Now consider the entry below.
Query block: Recorded Primer fibroblast Cell viability (% of controll) for CNCC#Cc1cccc(CN2C(=O)C3=C(CCN(Cc4ccc(-n5cc(-c6ccccc6)nn5)cc4)C3)N3CCN=C23)c1 [38b] , please?
Result block: 0 % of controll

====

Test: CellTiter-Glo luminescent cell viability assay, primary fibroblasts
Settings: human, primary skin fibroblasts (non-tumorous), Primer fibroblast Cell viability (% of controll), 7.7 μM; 72 h; dose–response, individual replicates
attribute measured: viability at 72 h, 7.7 µM
Write the numeric value and follow it with the unit.

Please review the entries below; each comes with its answer.
CNCC#Cc1cccc(CN2C(=O)C3=C(CCN(Cc4ccc(-n5cc(-c6cc(F)cc(F)c6)nn5)cc4)C3)N3CCN=C23)c1 [43c] ... 0%
NCC#Cc1ccc(CN2C(=O)C3=C(CCN(Cc4ccc(-n5cc(-c6ccccc6)nn5)cc4)C3)N3CCN=C23)cc1 [I/B, reference compound] ... 92%
CNCC#Cc1cccc(CN2C(=O)C3=C(CCN(Cc4ccc(-n5cc(-c6ccccc6)nn5)cc4)C3)N3CCN=C23)c1 [38b] ... 0%
CNCC#Cc1cccc(CN2C(=O)C3=C(CCN(Cc4ccc(-n5cc(-c6ccc(F)cc6)nn5)cc4)C3)N3CCN=C23)c1 [43b] ... 0%

Query block: Which viability at 72 h, 7.7 µM is listed for CNCC#Cc1cccc(CN2C(=O)C3=C(CCN(Cc4ccc(-n5cc(-c6cccc(F)c6)nn5)cc4)C3)N3CCN=C23)c1 [43a] ?
Result block: 0%

====

Test system: non-tumorous primary fibroblast cells
Assay: CellTiter-Glo luminescent cell viability assay, primary fibroblasts
Conditions: 26 μM; 72 h; dose–response, individual replicates
Provide the reported Primer fibroblast Cell viability (% of controll) of each item.

Worked cases, Primer fibroblast Cell viability (% of controll) given:
CNCC#Cc1cccc(CN2C(=O)C3=C(CCN(Cc4ccc(-n5cc(-[c-]6cccc6)nn5)cc4)C3)N3CCN=C23)c1.[Fe+2].c1cc[cH-]c1 [38a] ... 0 % of controll
CNCC#Cc1cccc(CN2C(=O)C3=C(CCN(Cc4ccc(-n5cc(-c6ccc(F)cc6)nn5)cc4)C3)N3CCN=C23)c1 [43b] ... 0 % of controll
NCC#Cc1ccc(CN2C(=O)C3=C(CCN(Cc4ccc(-n5cc(-c6ccccc6)nn5)cc4)C3)N3CCN=C23)cc1 [I/B, reference compound] ... 0 % of controll
NCC#Cc1ccc(CN2C(=O)C3=C(CCN(Cc4ccc(-n5cc(-[c-]6cccc6)nn5)cc4)C3)N3CCN=C23)cc1.[Fe+2].c1cc[cH-]c1 [I/A, reference compound] ... 0 % of controll
CNCC#Cc1cccc(CN2C(=O)C3=C(CCN(Cc4ccc(-n5cc(-c6cccc(F)c6)nn5)cc4)C3)N3CCN=C23)c1 [43a] ... 0 % of controll
CNCC#Cc1cccc(CN2C(=O)C3=C(CCN(Cc4ccc(-n5cc(-c6ccccc6)nn5)cc4)C3)N3CCN=C23)c1 [38b] ... 0 % of controll

Then this molecule:
Query block: # Primer fibroblast Cell viability (% of controll) lookup, item CNCC#Cc1cccc(CN2C(=O)C3=C(CCN(Cc4ccc(-n5cc(-c6cc(F)cc(F)c6)nn5)cc4)C3)N3CCN=C23)c1 [43c]
Result block: 0 % of controll
